- System Under Test: aldosterone synthase (Homo sapiens, UniProt P19099)
- Construct: host or cells: NCI-H295R
- Sequence (P19099 25-503): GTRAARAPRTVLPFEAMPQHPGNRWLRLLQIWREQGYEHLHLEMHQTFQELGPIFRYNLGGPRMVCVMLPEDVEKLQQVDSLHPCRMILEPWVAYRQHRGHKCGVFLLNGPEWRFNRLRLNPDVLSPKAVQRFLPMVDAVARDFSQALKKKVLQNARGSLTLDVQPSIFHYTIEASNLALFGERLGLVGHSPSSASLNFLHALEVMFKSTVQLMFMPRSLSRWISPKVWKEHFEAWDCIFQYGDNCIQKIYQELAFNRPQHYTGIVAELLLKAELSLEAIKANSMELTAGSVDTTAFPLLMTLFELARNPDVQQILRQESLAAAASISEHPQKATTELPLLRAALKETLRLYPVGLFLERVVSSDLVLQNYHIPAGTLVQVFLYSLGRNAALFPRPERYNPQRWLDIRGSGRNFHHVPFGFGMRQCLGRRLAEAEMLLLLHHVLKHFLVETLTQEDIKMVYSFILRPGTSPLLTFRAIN
- Measurement Notes: Aldosterone cell secretion in NCI-H295R cells (aldosterone synthase inhibition, SPA)
- Type: cell-based
- Run Parameters: human adrenocortical carcinoma NCI-H295R cells, 1 μM Ang II, 24 hr
Assign a class from recorded IC50; defined classes: low: < 20 nM; middle: ≥ 20 nM and < 100 nM; high: ≥ 100 nM

{"Compound": "CCN(Cc1ccccc1)Cc1cncc(-c2ccc3oc(=O)n(C)c3c2)c1", "Category": "low"}

input: Class label required: Cn1c(=O)oc2ccc(-c3cncc(CO)c3)cc21
output: middle

input: Class label required: Cn1c(=O)oc2ccc(-c3cncc(C(O)C4CC4)c3)cc21 (single isomer, unassigned) [Example 13 Enantiomer 1]
output: middle

input: Class label required: CCCS(=O)(=O)Nc1cncc(-c2ccc3oc(=O)n(C)c3c2)c1
output: high

input: Class label required: Cn1c(=O)oc2ccc(-c3cccnc3)cc21
output: low

input: Class label required: CC(O)c1ccncc1-c1ccc2oc(=O)n(C)c2c1 (single isomer, unassigned) [Example 7 Enantiomer 1]
output: high

input: Class label required: Cn1c(=O)oc2ccc(-c3cncc(C(O)C(F)(F)F)c3)cc21 (stereo not drawn)
output: low

input: Class label required: COc1cncc(-c2ccc3oc(=O)n(C)c3c2)c1
output: low

input: Class label required: Cn1c(=O)oc2cc(F)c(-c3cncc(CO)c3)cc21
output: high
